Measured values drawn from patent US12297193B2 for this set.

Target: PTPN2 (Homo sapiens)
Construct: endogenous in cells; host or cells: HEK293T
Sequence (P17706 whole entry): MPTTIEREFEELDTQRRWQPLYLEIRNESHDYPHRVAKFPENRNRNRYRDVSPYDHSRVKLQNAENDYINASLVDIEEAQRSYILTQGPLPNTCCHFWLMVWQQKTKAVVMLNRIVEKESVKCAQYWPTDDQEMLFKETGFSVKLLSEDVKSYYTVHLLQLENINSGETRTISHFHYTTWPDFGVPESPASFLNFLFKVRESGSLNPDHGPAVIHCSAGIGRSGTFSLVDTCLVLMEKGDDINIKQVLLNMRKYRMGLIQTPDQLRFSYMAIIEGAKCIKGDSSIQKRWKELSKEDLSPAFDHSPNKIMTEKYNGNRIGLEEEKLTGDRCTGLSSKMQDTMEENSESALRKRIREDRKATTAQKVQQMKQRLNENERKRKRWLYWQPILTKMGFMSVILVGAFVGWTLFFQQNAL
Test: Western blot, PTPN2 degradation in HEK293T cells
Format: cell-based
Conditions: 48 hours incubation, Western blot, read-out: Relative DC50, PTPN2 degradation

{"COMPOUND": "CC1(C)CC(Nc2cccc(-c3sc(C(=O)O)c(OCC(=O)O)c3Cl)c2)CCN1S(=O)(=O)Cc1ccc2oc(N3CCC(c4ccc5c6c(cccc46)C(=O)N5C4CCC(=O)NC4=O)CC3)nc2c1 (centres unmarked)", "UNIT_SPEC": "nM", "DC50": 10.1}
{"COMPOUND": "CC1(C)C[C@@H](Nc2cccc(-c3sc(C(=O)O)c(OCC(=O)O)c3Cl)c2)CCN1S(=O)(=O)Cc1cccc(NC(=O)N2CCC(c3ccc4c5c(cccc35)C(=O)N4[C@H]3CCC(=O)NC3=O)CC2)c1 [Ref. Cpd, reference compound]", "UNIT_SPEC": "nM", "DC50": 29.3}
{"COMPOUND": "CC1(C)CC(Nc2cccc(-c3sc(C(=O)O)c(OCC(=O)O)c3Cl)c2)CCN1S(=O)(=O)Cc1ccc2cnc(N3CCC(c4ccc5c6c(cccc46)C(=O)N5C4CCC(=O)NC4=O)CC3)nc2c1 (centres unmarked)", "UNIT_SPEC": "nM", "DC50": 38.8}
{"COMPOUND": "CC1(C)CC(Nc2cccc(-c3sc(C(=O)O)c(OC(F)(F)C(=O)O)c3Cl)c2)CCN1S(=O)(=O)Cc1ccc2oc(N3CCC(c4ccc5c6c(cccc46)C(=O)N5C4CCC(=O)NC4=O)CC3)nc2c1 (centres unmarked)", "UNIT_SPEC": "nM", "DC50": 55.2}
{"COMPOUND": "O=C(O)COc1c(C(=O)O)sc(-c2cccc(NC3CCN(S(=O)(=O)Cc4ccc5oc(N6CCC(c7ccc8c9c(cccc79)C(=O)N8C7CCC(=O)NC7=O)CC6)nc5c4)C4(CC4)C3)c2)c1Cl (centres unmarked)", "UNIT_SPEC": "nM", "DC50": 51.2}
